# measured on: Calcium and integrin-binding protein 1 (Homo sapiens) (UniProt Q99828)
# Sequence (Q99828 whole entry, looked up): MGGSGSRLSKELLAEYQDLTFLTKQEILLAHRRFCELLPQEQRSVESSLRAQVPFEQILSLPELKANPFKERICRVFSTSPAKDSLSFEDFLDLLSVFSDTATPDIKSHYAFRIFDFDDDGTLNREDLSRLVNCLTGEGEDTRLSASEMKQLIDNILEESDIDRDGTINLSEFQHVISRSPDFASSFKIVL
# assay explanation: Primary qHTS for Identification of Calcium Integrin Binding Protein 1 (CIB1) Competitor (AID 1508620);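 note: GST tagged CIB1 binding a fluorescein labelled alphaIIb integrin peptide tracer; top concentration of the series differs between compounds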
# measurement parameters: CIB1-GST / FITC-alphaIIb peptide fluorescence polarization; series mostly up to 57.7 µM
# Source text: Assay Provider: Ulhas P. Naik, PhD Sidney Kimmel Medical College Thomas Jefferson University, Philadelphia, PA Primary function of platelets is to maintain hemostasis. At the site of vascular injury, platelets adhere to adhesive proteins such as collagen and von Willebrand factor. […] PROTOCOL TABLES SEQUENCE No. (1, 2, 3, etc.); […] […] 7; ViewLux Fluorescent Polization Read: excitation = 480(20) / emission = 540(25) S and P; FITC Dichroic mirror.
Results filed as inconclusive are left out. Active and inactive are the calls of the source. Calls come from the whole dose curve; as a rule, active = well fitted inhibition curve with a large enough effect; inconclusive = small, poorly fitted or top-dose-only effect; inactive = flat fitted curve, though single readings scatter.
measured parameter: activity change, negative = inhibition

Known activity change, negative = inhibition results, listed for orientation:
COc1cc2c(Nc3ccc(NC(=O)c4ccccc4)cc3)ncnc2cc1OCCCN1CCOCC1: inactive
Cc1c(NC(=O)OC[C@@H]2COCCN2)cn2ncnc(Nc3ccc4c(cnn4Cc4cccc(F)c4)c3)c12: inactive
Cc1ccc(C(=O)Nc2ccc(CN3CCN(C)CC3)c(C(F)(F)F)c2)cc1C#Cc1cnc2cccnn12: inactive
COc1ccc(CC2SC(=O)NC2=O)cc1C(=O)NCc1ccc(C(F)(F)F)cc1 (centres undefined): inactive
CCc1cc2c(cc1N1CCC(N3CCOCC3)CC1)C(C)(C)c1[nH]c3cc(C#N)ccc3c1C2=O: inactive
N#Cc1c(O)c2c(-c3ccc(-c4ccccc4O)cc3)csc2[nH]c1=O: inactive
Cc1cc(Nc2cc(CN3CCOCC3)c3nc(C)c(Cc4ccc(Cl)cc4F)n3n2)n[nH]1: inactive
Cc1cc(Nc2ncnc3ccc(-c4ccc(CNCCS(C)(=O)=O)o4)cc23)ccc1Oc1ccn2ncnc2c1: inactive

Here is the next item to consider.
GET /values?item= `O=C(NCCS(=O)(=O)c1ccc(C(F)(F)F)cn1)c1ccc(Cl)cc1` &system= Calcium and integrin-binding protein 1 (Homo sapiens) (UniProt Q99828) returns activity change, negative = inhibition: inactive
